ASSAY PROTOCOL: PAMPA permeability
COND: PAMPA, ADME P: PAMPA permeability (class), Tables 17-19; class probably colour-coded, colour lost
Items are presented alongside their recorded Papp.

Examples from the recorded data:
MOLECULE: CC1=C(C(=O)Nc2cc(C(=O)O)ccn2)C(c2ccccc2Cl)N=C(Nc2nc3ccc(F)cc3o2)N1 (racemic)
Papp: < 10 ×10⁻⁶ cm/s
--
MOLECULE: CC1=C(C(=O)NCc2nc3ccccc3n2C)C(c2ccccc2Cl)N=C(Nc2nc3ccccc3o2)N1 (stereo not shown)
Papp: < 10 ×10⁻⁶ cm/s
--
MOLECULE: CC1=C(C(=O)Nc2cc(C(=O)O)ccn2)C(c2cccc(S(N)(=O)=O)c2)N=C(Nc2nc3ccc(F)cc3o2)N1 (stereo not shown)
Papp: < 10 ×10⁻⁶ cm/s

For the next question, use this molecule.
Q) Bench note: what Papp did COc1ccc2oc(NC3=NC(c4ccccc4Cl)C(C(=O)Nc4cc(C(=O)O)ccn4)=C(C)N3)nc2c1 (stereo not shown) show?
A) < 10 ×10⁻⁶ cm/s
